Reference for the values: the kinase profiling compilation of Christmann-Franck et al. (2016)

molecular target: UniProt:P35968; assay: radiometric filter-binding kinase assay, Kinase HotSpot; conditions: compound 0.5 µM; ATP 10 µM
Sequence (P35968 whole entry, looked up): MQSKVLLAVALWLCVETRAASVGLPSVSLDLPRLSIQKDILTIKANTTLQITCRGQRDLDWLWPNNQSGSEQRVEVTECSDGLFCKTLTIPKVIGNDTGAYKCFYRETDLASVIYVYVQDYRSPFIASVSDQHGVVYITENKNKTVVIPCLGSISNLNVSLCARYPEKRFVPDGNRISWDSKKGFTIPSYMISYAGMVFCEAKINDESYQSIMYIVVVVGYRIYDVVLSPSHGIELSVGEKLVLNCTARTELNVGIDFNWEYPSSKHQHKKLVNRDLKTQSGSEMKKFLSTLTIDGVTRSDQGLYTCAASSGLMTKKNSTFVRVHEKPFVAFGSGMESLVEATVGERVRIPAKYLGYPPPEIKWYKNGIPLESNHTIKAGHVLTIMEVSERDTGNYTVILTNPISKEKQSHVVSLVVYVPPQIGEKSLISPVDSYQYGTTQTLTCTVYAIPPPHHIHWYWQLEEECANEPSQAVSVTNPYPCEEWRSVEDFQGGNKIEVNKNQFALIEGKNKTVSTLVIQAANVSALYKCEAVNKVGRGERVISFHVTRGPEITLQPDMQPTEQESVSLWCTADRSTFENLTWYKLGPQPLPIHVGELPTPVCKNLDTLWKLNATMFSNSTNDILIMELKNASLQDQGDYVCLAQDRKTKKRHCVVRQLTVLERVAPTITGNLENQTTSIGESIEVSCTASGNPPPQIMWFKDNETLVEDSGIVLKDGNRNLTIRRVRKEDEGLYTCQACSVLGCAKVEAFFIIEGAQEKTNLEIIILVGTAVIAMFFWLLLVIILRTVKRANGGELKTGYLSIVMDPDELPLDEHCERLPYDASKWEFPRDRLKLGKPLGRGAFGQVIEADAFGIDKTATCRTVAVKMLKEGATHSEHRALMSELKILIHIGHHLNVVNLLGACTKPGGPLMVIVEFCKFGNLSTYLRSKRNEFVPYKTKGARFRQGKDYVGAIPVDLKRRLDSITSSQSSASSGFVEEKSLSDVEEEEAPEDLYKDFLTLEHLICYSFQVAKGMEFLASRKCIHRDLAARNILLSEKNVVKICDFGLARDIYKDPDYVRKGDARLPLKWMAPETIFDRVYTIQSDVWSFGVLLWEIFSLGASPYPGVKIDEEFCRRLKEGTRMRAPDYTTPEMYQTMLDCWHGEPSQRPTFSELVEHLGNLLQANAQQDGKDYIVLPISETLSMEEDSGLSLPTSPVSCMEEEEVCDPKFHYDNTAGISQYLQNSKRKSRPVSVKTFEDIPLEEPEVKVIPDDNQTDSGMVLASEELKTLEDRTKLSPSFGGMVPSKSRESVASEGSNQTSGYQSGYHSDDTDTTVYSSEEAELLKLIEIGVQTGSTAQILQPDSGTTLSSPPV
observed property: residual activity (%)

structure string: O=c1[nH]c2ccccc2n1C1CCN(Cc2ccc(-c3nc4cc5[nH]cnc5cc4nc3-c3ccccc3)cc2)CC1
observed property: residual activity
assay result: 90.9

structure string: O=C1NC(=O)c2cc(Nc3ccc(F)cc3)c(Nc3ccc(F)cc3)cc21
observed property: residual activity
assay result: 97.9

structure string: FC(F)(F)c1ccc(/C=C/c2nc(COc3ccc(CCCCn4ccnn4)cc3)co2)cc1
observed property: residual activity
assay result: 106

structure string: COc1cc2c(cc1OC)-c1[nH]nc(Nc3cccc(F)c3)c1C2
observed property: residual activity
assay result: 98.7

structure string: O=C1NC(=O)c2c1c1c3ccccc3[nH]c1c1[nH]c3cc(Br)ccc3c21
observed property: residual activity
assay result: 67.9

structure string: Cn1cc(/C=C2\C(=O)Nc3ccc(S(N)(=O)=O)cc32)c2ccccc21
observed property: residual activity
assay result: 74.3

structure string: O=C(O)c1ccc2c3c1cccc3c(=O)n1c3ccccc3nc21
observed property: residual activity
assay result: 101

structure string: Cc1cc(Nc2nc(-c3ccccc3)nc3ccccc23)n[nH]1
observed property: residual activity
assay result: 36.5

structure string: O=C(c1ccccc1)c1ccc(N2CCOCC2)cc1O
observed property: residual activity
assay result: 96.8

structure string: O=c1cc(N2CCOCC2)oc2c(-c3ccccc3)cccc12
observed property: residual activity
assay result: 87.2

structure string: c1ccc(-c2cnc(Nc3ccc(OCCN4CCCC4)cc3)s2)cc1
observed property: residual activity
assay result: 76.1

structure string: Nc1ncnc2c1cnn2-c1ccccc1
observed property: residual activity
assay result: 98.8

structure string: COc1cc2c(N3CCN(C(=O)Nc4ccc(OC(C)C)cc4)CC3)ncnc2cc1OCCCN1CCCCC1
observed property: residual activity
assay result: 106

structure string: CCCCc1c(-c2ccc(O)cc2)[nH]c2nccnc12
observed property: residual activity
assay result: 89.8

----------
Quick reference: residual activity of the listed items.
molecular target: STK3 (human); experiment: radiometric filter-binding kinase assay, Kinase HotSpot; details: compound 0.5 µM; ATP 10 µM
observed property: residual activity (%)

structure string: COc1cc2ncnc(Nc3ccc(O)c(Br)c3)c2cc1OC
assay result: 89.6

structure string: O=c1c(-c2ccc(F)cc2)c(-c2ccncc2)[nH]n1-c1ccc(Cl)cc1
assay result: 88.3

structure string: Nc1ncnc2c1cnn2-c1ccccc1
assay result: 92.3

structure string: O=C1NC(=O)c2cc(Nc3ccc(F)cc3)c(Nc3ccc(F)cc3)cc21
assay result: 90.7

structure string: O=c1c2ccccc2[nH]c(=S)n1CCN1CCC(=C(c2ccc(F)cc2)c2ccc(F)cc2)CC1
assay result: 102

structure string: N/C(=N\N=C/c1ccc(-c2cccc([N+](=O)[O-])c2)o1)N[N+](=O)[O-]
assay result: 100

structure string: O=C(c1ccccc1)c1ccc(N2CCOCC2)cc1O
assay result: 100

structure string: COc1cc2c(N3CCN(C(=O)Nc4ccc(OC(C)C)cc4)CC3)ncnc2cc1OCCCN1CCCCC1
assay result: 94.7

structure string: COc1cc2c(Nc3ccc(Br)cc3F)ncnc2cc1OCC1CCN(C)CC1
assay result: 97.5

structure string: CCOc1cc2ncnc(Nc3cccc(Br)c3)c2cc1OCC
assay result: 99.5

----------
Recorded residual activity, one value per entry.
biological target: PTK2 (human); experiment: radiometric filter-binding kinase assay, Kinase HotSpot; conditions: compound 0.5 µM; ATP 10 µM

structure string: Nc1ncnc2c1cnn2-c1ccccc1
tested on: PTK2 (human)
residual activity, %: 94.9
--
structure string: COc1cc2c(Nc3ccc(Br)cc3F)ncnc2cc1OCC1CCN(C)CC1
tested on: PTK2 (human)
residual activity, %: 100
--
structure string: Cc1cc(Nc2nc(-c3ccccc3)nc3ccccc23)n[nH]1
tested on: PTK2 (human)
residual activity, %: 59.9
--
structure string: COc1cc2c(cc1OC)-c1[nH]nc(Nc3cccc(F)c3)c1C2
tested on: PTK2 (human)
residual activity, %: 88.2
--
structure string: O=C1NC(=O)c2cc(Nc3ccc(F)cc3)c(Nc3ccc(F)cc3)cc21
tested on: PTK2 (human)
residual activity, %: 96
--
structure string: CCOc1cc2ncnc(Nc3cccc(Br)c3)c2cc1OCC
tested on: PTK2 (human)
residual activity, %: 101
--
structure string: CCCCc1c(-c2ccc(O)cc2)[nH]c2nccnc12
tested on: PTK2 (human)
residual activity, %: 83.1
--
structure string: COc1cc2c(N3CCN(C(=O)Nc4ccc(OC(C)C)cc4)CC3)ncnc2cc1OCCCN1CCCCC1
tested on: PTK2 (human)
residual activity, %: 101
--
structure string: O=c1c(-c2ccc(F)cc2)c(-c2ccncc2)[nH]n1-c1ccc(Cl)cc1
tested on: PTK2 (human)
residual activity, %: 95.1

----------
molecular target: MAPK8 (human) (UniProt P45983); experiment: radiometric filter-binding kinase assay, Kinase HotSpot; details: compound 0.5 µM; ATP 10 µM
Sequence (P45983 whole entry, looked up): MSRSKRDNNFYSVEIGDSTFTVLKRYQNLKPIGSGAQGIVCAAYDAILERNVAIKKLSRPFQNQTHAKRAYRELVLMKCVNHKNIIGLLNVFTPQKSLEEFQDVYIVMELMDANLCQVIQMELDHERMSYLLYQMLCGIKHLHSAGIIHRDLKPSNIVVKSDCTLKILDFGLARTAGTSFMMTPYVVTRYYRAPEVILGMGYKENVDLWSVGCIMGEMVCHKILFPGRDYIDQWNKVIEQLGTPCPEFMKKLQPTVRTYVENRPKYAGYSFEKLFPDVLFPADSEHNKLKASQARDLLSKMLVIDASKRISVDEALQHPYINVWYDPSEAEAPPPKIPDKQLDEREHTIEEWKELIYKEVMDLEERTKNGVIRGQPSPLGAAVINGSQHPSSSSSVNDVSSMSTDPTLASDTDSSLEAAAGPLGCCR
Recorded residual activity values for a group of compounds are listed next.
observed property: residual activity (%)

structure string: O=c1cc(N2CCOCC2)oc2c(-c3ccccc3)cccc12
units label: %
assay result: 106
//
structure string: O=c1c(-c2ccc(F)cc2)c(-c2ccncc2)[nH]n1-c1ccc(Cl)cc1
units label: %
assay result: 90.2
//
structure string: N#CCCc1ccc2c(c1)-c1[nH]c3ccc([N+](=O)[O-])cc3c1CC(=O)N2
units label: %
assay result: 93.1
//
structure string: N/C(=N\N=C/c1ccc(-c2cccc([N+](=O)[O-])c2)o1)N[N+](=O)[O-]
units label: %
assay result: 91.2
//
structure string: O=c1c2ccccc2[nH]c(=S)n1CCN1CCC(=C(c2ccc(F)cc2)c2ccc(F)cc2)CC1
units label: %
assay result: 98.9
//
structure string: O=c1[nH]c2ccccc2n1C1CCN(Cc2ccc(-c3nc4cc5[nH]cnc5cc4nc3-c3ccccc3)cc2)CC1
units label: %
assay result: 89.6
//
structure string: N#C/C(=C1/Nc2ccccc2S1)c1ccnc(NCCc2cccnc2)n1
units label: %
assay result: 87.6
//
structure string: O=C1NC(=O)c2c1c1c3ccccc3[nH]c1c1[nH]c3cc(Br)ccc3c21
units label: %
assay result: 85.2
//
structure string: FC(F)(F)c1ccc(/C=C/c2nc(COc3ccc(CCCCn4ccnn4)cc3)co2)cc1
units label: %
assay result: 105
//
structure string: O=C1NC(=O)c2cc(Nc3ccc(F)cc3)c(Nc3ccc(F)cc3)cc21
units label: %
assay result: 91.4
//
structure string: COc1cc2c(cc1OC)-c1[nH]nc(Nc3cccc(F)c3)c1C2
units label: %
assay result: 85.2
//
structure string: CCCCc1c(-c2ccc(O)cc2)[nH]c2nccnc12
units label: %
assay result: 81.9
//
structure string: COc1cccc(-c2cc(=O)c3ccccc3o2)c1N
units label: %
assay result: 95.3
//
structure string: O=S(=O)(NCCNC/C=C/c1ccc(Br)cc1)c1cccc2cnccc12
units label: %
assay result: 92.7
//
structure string: COc1cc2c(Nc3ccc(Br)cc3F)ncnc2cc1OCC1CCN(C)CC1
units label: %
assay result: 93.7
//
structure string: Cc1cc(Nc2nc(-c3ccccc3)nc3ccccc23)n[nH]1
units label: %
assay result: 92

----------
target: FGFR4 (human) (UniProt P22455); assay: radiometric filter-binding kinase assay, Kinase HotSpot; conditions: compound 0.5 µM; ATP 10 µM
Sequence (P22455 whole entry, looked up): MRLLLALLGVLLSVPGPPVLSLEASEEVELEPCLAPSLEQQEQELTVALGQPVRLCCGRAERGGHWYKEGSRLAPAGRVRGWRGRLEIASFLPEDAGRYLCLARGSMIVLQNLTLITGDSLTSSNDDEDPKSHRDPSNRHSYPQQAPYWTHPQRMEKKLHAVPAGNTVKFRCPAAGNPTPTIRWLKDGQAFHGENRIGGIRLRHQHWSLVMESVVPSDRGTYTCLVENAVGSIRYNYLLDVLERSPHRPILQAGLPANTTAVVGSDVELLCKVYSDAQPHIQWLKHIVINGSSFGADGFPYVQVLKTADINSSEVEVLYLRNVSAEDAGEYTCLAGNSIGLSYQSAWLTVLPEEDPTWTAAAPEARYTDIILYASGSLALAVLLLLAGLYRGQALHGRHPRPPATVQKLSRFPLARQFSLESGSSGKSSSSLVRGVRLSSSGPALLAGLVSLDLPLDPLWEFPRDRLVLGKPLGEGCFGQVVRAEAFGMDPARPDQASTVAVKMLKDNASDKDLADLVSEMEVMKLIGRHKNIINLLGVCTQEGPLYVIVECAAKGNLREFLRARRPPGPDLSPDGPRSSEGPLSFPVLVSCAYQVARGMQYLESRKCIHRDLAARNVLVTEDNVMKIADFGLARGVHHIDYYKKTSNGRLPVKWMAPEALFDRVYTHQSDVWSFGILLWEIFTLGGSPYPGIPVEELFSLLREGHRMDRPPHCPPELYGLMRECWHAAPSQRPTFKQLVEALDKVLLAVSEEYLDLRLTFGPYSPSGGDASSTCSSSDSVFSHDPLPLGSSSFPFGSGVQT

structure string: c1ccc(-c2cnc(Nc3ccc(OCCN4CCCC4)cc3)s2)cc1
residual activity / %: 95.6
--
structure string: O=C1NC(=O)c2c1c1c3ccccc3[nH]c1c1[nH]c3cc(Br)ccc3c21
residual activity / %: 90.6
--
structure string: N#CCCc1ccc2c(c1)-c1[nH]c3ccc([N+](=O)[O-])cc3c1CC(=O)N2
residual activity / %: 89.1
--
structure string: CCCCc1c(-c2ccc(O)cc2)[nH]c2nccnc12
residual activity / %: 91.8
--
structure string: O=c1[nH]c2ccccc2n1C1CCN(Cc2ccc(-c3nc4cc5[nH]cnc5cc4nc3-c3ccccc3)cc2)CC1
residual activity / %: 97.2
--
structure string: COc1cc2c(N3CCN(C(=O)Nc4ccc(OC(C)C)cc4)CC3)ncnc2cc1OCCCN1CCCCC1
residual activity / %: 87.8
--
structure string: O=C1NC(=O)c2cc(Nc3ccc(F)cc3)c(Nc3ccc(F)cc3)cc21
residual activity / %: 95.5
--
structure string: FC(F)(F)c1ccc(/C=C/c2nc(COc3ccc(CCCCn4ccnn4)cc3)co2)cc1
residual activity / %: 88.3
--
structure string: CCc1nc(-c2ccc(OC)cc2)[nH]c1-c1ccncc1
residual activity / %: 95.9
--
structure string: COc1cccc(-c2cc(=O)c3ccccc3o2)c1N
residual activity / %: 104
--
structure string: Cn1cc(/C=C2\C(=O)Nc3ccc(S(N)(=O)=O)cc32)c2ccccc21
residual activity / %: 74.1
--
structure string: Nc1ncnc2c1cnn2-c1ccccc1
residual activity / %: 94.8
--
structure string: COc1cc2c(Nc3ccc(Br)cc3F)ncnc2cc1OCC1CCN(C)CC1
residual activity / %: 90
